test system: rice bacterial wilt pathogen (Xoo); assay type: cell-based, Xanthomonas oryzae pv. oryzae; conditions: 50 μg/mL
READOUT_LABEL: Inhibition Rate

COMPOUND | ENDPOINT_VALUE
COc1cc(OC)c2c(=O)c(OCCCN(C)C3CCN(S(=O)(=O)c4ccccc4)CC3)c(-c3cc(OC)c(OC)c(OC)c3)oc2c1 | 48.01 ± 3.21%
COc1cc(OC)c2c(=O)c(OCCCCN(C)C3CCN(S(=O)(=O)c4ccccc4[N+](=O)[O-])CC3)c(-c3cc(OC)c(OC)c(OC)c3)oc2c1 | 90.29 ± 4.84%
COc1cc(OC)c2c(=O)c(OCCCN(C)C3CCN(S(=O)(=O)c4ccccn4)CC3)c(-c3cc(OC)c(OC)c(OC)c3)oc2c1 | 52.14 ± 3.12%
COc1cc(OC)c2c(=O)c(OCCCN(C)C3CCN(S(=O)(=O)c4ccc([N+](=O)[O-])cc4)CC3)c(-c3cc(OC)c(OC)c(OC)c3)oc2c1 | 52.08 ± 6.32%
COc1cc(OC)c2c(=O)c(OCCCCN(C)C3CCN(S(=O)(=O)c4ccc([N+](=O)[O-])cc4)CC3)c(-c3cc(OC)c(OC)c(OC)c3)oc2c1 | 55.67 ± 6.24%
COc1cc(OC)c2c(=O)c(OCCCN(C)C3CCN(S(=O)(=O)c4ccc(C)cc4)CC3)c(-c3cc(OC)c(OC)c(OC)c3)oc2c1 | 75.88 ± 1.80%
COc1cc(OC)c2c(=O)c(OCCCN(C)C3CCN(S(=O)(=O)c4ccc5ccccc5c4)CC3)c(-c3cc(OC)c(OC)c(OC)c3)oc2c1 | 88.53 ± 5.30%
COc1cc(OC)c2c(=O)c(OCCCCN(C)C3CCN(S(=O)(=O)c4cccs4)CC3)c(-c3cc(OC)c(OC)c(OC)c3)oc2c1 | 92.19 ± 0.98%
Nc1nnc([S-])s1.Nc1nnc([S-])s1.[Cu+2] [Thiabenone, thiodiazole copper, reference compound] | 58.92%
COc1ccc(S(=O)(=O)N2CCC(N(C)CCCOc3c(-c4cc(OC)c(OC)c(OC)c4)oc4cc(OC)cc(OC)c4c3=O)CC2)cc1 | 56.37 ± 2.44%
COc1cc(OC)c2c(=O)c(OCCCN(C)C3CCN(S(=O)(=O)c4ccccc4[N+](=O)[O-])CC3)c(-c3cc(OC)c(OC)c(OC)c3)oc2c1 | 59.65 ± 2.25%
COc1cc(OC)c2c(=O)c(OCCCN(C)C3CCN(S(=O)(=O)c4ccc(F)cc4)CC3)c(-c3cc(OC)c(OC)c(OC)c3)oc2c1 | 9.99 ± 7.64%
